- system.name: MCH receptor (Homo sapiens, UniProt Q99705)
- run.description: High throughput functional screening FLIPR/FDSS6000: inhibition of MCH-evoked intracellular Ca2+ changes
- Assay type: cell-based
- measurement.parameters: class by percent of control at 10^-7 M or by IC50; read-out: class
measurement.kind: IC50

{"smiles.entry": "CCCc1ccccc1NC(=O)N[C@H]1CC[C@@H](Nc2nc(N(C)C)c3ccccc3n2)CC1", "IC50": "< 50 nM"}

// next entry
Given CN(C)c1nc(N[C@H]2CC[C@@H](NC(=S)Nc3cccc([N+](=O)[O-])c3)CC2)nc2ccccc12 , state its recorded IC50.
> 200 nM

---

- system.name: MCH receptor (Homo sapiens, UniProt Q99705)
- run.description: High throughput functional screening FLIPR/FDSS6000: inhibition of MCH-evoked intracellular Ca2+ changes
- Assay type: cell-based
- measurement.parameters: class by percent of control at 10^−7 M or by IC50; read-out: class
pIC50: −log10 of the molar value.
The entries below come with measured pIC50 values attached.

Some compounds with known pIC50 results, for comparison:
{"compound": "CN(C)c1nc(N[C@H]2CC[C@@H](CNC(=O)c3ccc(C(F)(F)F)c(F)c3)C2)nc2ccccc12 [Example 1124]", "result": "< 6.70"}
{"compound": "CN(C)c1nc(N[C@H]2CC[C@@H](CNC(=O)c3ccc(C(F)(F)F)cc3F)C2)nc2ccccc12 [Example 1125]", "result": "< 6.70"}
{"compound": "CN(C)c1nc(N[C@H]2CC[C@@H](NC(=O)c3ccc(F)c(F)c3)CC2)nc2cc(F)c(F)cc12 [Example 1209]", "result": "> 7.30"}
{"compound": "CN(C)c1nc(N[C@H]2CC[C@@H](NC(=O)COc3cc(Cl)c(Cl)cc3Cl)CC2)nc2ccccc12 [Example 1077]", "result": "6.70 to 7.30"}
{"compound": "Cc1ccc(F)cc1CNC(=O)[C@H]1CC[C@@H](Nc2nc(N(C)C)c3ccccc3n2)CC1 [Example 1146]", "result": "> 7.30"}

Given Cc1ccc(Cl)c(CNC(=O)[C@H]2CC[C@@H](Nc3nc(N(C)C)c4ccccc4n3)CC2)c1F [Example 1150] , state its recorded pIC50.
> 7.30

And then CN(C)c1nc(N[C@H]2CC[C@@H](NC(=O)c3ccccc3)CC2)nc2cc(F)c(F)cc12 [Example 1205] , what is it?
> 7.30

And then CN(C)c1nc(N[C@H]2CC[C@@H](C(=O)NCc3cc(F)c(F)c(F)c3)CC2)nc2ccccc12 [Example 1171] , what is it?
> 7.30

---

- system.name: MCH receptor (Homo sapiens, UniProt Q99705)
- run.description: High throughput functional screening FLIPR/FDSS6000: inhibition of MCH-evoked intracellular Ca2+ changes
- Format: cell-based
- measurement.parameters: class by percent of control at 10^−7 M or by IC50; read-out: class
pIC50: −log10 of the molar value.
measurement.kind: pIC50

Some molecules with known pIC50 results, for comparison:
{"molecule": "CN(C)c1nc(N[C@H]2CC[C@@H](C(=O)NCc3ccc(Cl)nc3)CC2)nc2cc(F)c(F)cc12 [Example 996]", "system.name": "MCH receptor (Homo sapiens, UniProt Q99705)", "pIC50": "6.70 to 7.30"}
{"molecule": "CN(C)c1nc(N[C@H]2CC[C@@H](NC(=O)CNc3ccc(F)cc3)CC2)nc2ccccc12 [Example 1091]", "system.name": "MCH receptor (Homo sapiens, UniProt Q99705)", "pIC50": "> 7.30"}

For the record CN(C)c1nc(N[C@H]2CC[C@@H](C(=O)NCc3cccc(F)c3F)CC2)nc2ccccc12 [Example 1159] , what value of pIC50 is listed for MCH receptor (Homo sapiens, UniProt Q99705)?
> 7.30

And then COc1ccc(OC)c(NC(=O)NC[C@H]2CC[C@@H](Nc3nc(N(C)C)c4ccccc4n3)CC2)c1 [Example 1020] , what is it?
6.70 to 7.30

And then CN(C)c1nc(N[C@H]2CC[C@@H](C(=O)NCc3ccc(Br)cc3F)CC2)nc2ccccc12 [Example 1162] , what is it?
> 7.30

And then Cc1cc(C)cc(CNC(=O)[C@H]2CC[C@@H](Nc3nc(N(C)C)c4ccccc4n3)CC2)c1 [Example 1142] , what is it?
> 7.30

And then CN(C)c1nc(N[C@H]2CC[C@@H](C(=O)NCc3cccc(-c4ccccc4)c3)CC2)nc2ccccc12 [Example 1148] , what is it?
> 7.30

And then CN(C)c1nc(N[C@H]2CC[C@@H](C(=O)NCc3ccc(C(F)(F)F)cc3)CC2)nc2cc(F)c(F)cc12 [Example 999] , what is it?
6.70 to 7.30

And then CN(C)c1nc(N[C@H]2CC[C@@H](C(=O)Nc3nc4ccccc4[nH]3)CC2)nc2ccccc12 [Example 1198] , what is it?
< 6.70

And then CN(C)c1nc(N[C@H]2CC[C@@H](CNC(=O)[C@@H](O)c3ccccc3)CC2)nc2ccccc12 [Example 1103] , what is it?
< 6.70

And then CN(C)c1nc(N[C@H]2CC[C@@H](CNC(=O)C(O)c3cccc(C(F)(F)F)c3)CC2)nc2ccccc12 (relative stereo) [Example 1104] , what is it?
6.70 to 7.30

And then CN(C)c1nc(N[C@H]2CC[C@@H](NC(=O)c3ccc(Oc4ccc(OC(F)(F)F)cc4)nc3)CC2)nc2ccccc12 [Example 1062] , what is it?
< 6.70

And then CN(C)c1nc(N[C@H]2CC[C@@H](CNC(=O)Nc3ccc(Cl)cc3)CC2)nc2ccccc12 [Example 1023] , what is it?
6.70 to 7.30

And then COc1ccc(C(NC(=O)[C@H]2CC[C@@H](Nc3nc(N(C)C)c4ccccc4n3)CC2)c2ccc(OC)cc2)cc1 [Example 1192] , what is it?
> 7.30

And then CN(C)c1nc(N[C@H]2CC[C@@H](NC(=O)c3ccc(Oc4cccc(Br)c4)nc3)CC2)nc2ccccc12 [Example 1072] , what is it?
< 6.70
